// data source = paper PMC4409382

biological target: 14-3-3ζ (Homo sapiens); construct: Both full-length 14-3-3ζ and 14-3-3ζΔC12 were expressed as N-terminally His-tagged protein; His tag (TEV-cleavable) (N, cleaved yes); made in house; host or cells: Escherichia coli BL21 (DE3) pLysS; assay: ITC of Cby peptides titrated into 14-3-3ζ; assay type: binding; settings: 298.15 K, duplicate set (S1 Table)
Sequence (P63104 whole entry): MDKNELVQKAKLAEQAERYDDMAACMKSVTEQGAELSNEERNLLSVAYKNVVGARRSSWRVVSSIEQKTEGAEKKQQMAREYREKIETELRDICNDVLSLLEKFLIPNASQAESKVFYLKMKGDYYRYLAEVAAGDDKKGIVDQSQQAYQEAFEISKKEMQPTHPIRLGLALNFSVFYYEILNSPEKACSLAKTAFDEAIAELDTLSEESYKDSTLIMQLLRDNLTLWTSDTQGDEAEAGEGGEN
Square brackets hold non-standard residues; d marks the D form. Peptide text beside a SMILES is read from it. pS = N[C@@H](COP(=O)(O)O)C(=O)O
assay.endpoint: ∆G (kcal/mol)
Please state the figure in kcal/mol; there is no need to write the unit.

Request - read-out ∆G | tested on 14-3-3ζ (Homo sapiens) | compound CC(C)C[C@H](NC(=O)[C@H](COP(=O)(O)O)NC(=O)[C@H](C)NC(=O)[C@H](CO)NC(=O)[C@H](CCCCN)NC(=O)[C@H](CCCNC(=N)N)NC(=O)[C@@H]1CCCN1C(=O)[C@@H]1CCCN1C(=O)[C@@H](NC(=O)[C@@H](N)CCCCN)[C@@H](C)O)C(=O)N[C@@H](CO)C(=O)N[C@@H](CC(N)=O)C(=O)N[C@@H](CC(C)C)C(=O)N[C@@H](Cc1c[nH]cn1)C(=O)N[C@@H](CO)C(=O)N[C@@H](CC(C)C)C(=O)N[C@@H](CC(=O)O)C(=O)N[C@@H](CCCNC(=N)N)C(=O)O [Cby 18-mer] (H-KTPPRKSA[pS]LSNLHSLDR-OH)
-7.24
